human mu opioid receptor (Homo sapiens) pKi data
Sequence (P35372 whole entry): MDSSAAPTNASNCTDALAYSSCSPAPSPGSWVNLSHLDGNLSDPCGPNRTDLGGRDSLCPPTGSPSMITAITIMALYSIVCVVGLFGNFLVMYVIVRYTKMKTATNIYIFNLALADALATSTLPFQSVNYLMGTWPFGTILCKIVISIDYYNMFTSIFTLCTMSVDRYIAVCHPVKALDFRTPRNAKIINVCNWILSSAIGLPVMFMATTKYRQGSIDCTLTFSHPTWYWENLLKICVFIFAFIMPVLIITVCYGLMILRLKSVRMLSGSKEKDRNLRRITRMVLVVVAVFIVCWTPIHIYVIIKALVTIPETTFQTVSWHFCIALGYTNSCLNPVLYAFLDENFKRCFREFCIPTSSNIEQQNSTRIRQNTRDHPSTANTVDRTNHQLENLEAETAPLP
Bear in mind: pKi is minus log10 of a mol/L concentration; give just that figure.

[
  {
    "MOLECULE": "CCC(CC)CN(CCN1[C@@H]2CC[C@H]1C[C@@H](c1cccc(C(N)=O)c1)C2)C(=O)CS(C)(=O)=O [Example 7]",
    "TARGET OR SYSTEM": "human mu opioid receptor (Homo sapiens)",
    "REPORTED": 9.80
  }
]

// switching to the query molecule
Query :: GET /values?readout=pKi&system=human mu opioid receptor (Homo sapiens)&item= CCC(CC)CN(CCCN1[C@@H]2CC[C@H]1C[C@@H](c1cccc(C(N)=O)c1)C2)C(=O)CS(C)(=O)=O [Example 6]
Result :: 9.90
